Reported IC50 is given for each of the following compounds.
target_of_assay: c-Cbl (Homo sapiens (Human), UniProt P22681)
Sequence (P22681 47-435): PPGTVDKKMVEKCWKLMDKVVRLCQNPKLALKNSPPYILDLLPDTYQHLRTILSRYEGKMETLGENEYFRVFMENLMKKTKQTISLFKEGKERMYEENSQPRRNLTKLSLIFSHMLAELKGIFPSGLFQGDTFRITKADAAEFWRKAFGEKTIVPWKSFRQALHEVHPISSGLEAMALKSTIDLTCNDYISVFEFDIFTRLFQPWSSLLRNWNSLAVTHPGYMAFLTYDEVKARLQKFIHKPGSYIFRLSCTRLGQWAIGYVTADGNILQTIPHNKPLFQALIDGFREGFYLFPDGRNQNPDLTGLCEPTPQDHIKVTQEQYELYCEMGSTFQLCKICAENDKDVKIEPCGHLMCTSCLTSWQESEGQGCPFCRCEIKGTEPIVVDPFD
assay_name: C-Cbl LCK Ub TR-FRET assay (c-cbl Lck HTRF)
Format: biochemical
# output: bare number, implied unit nM

>  <compound>
Cn1cnnc1[C@H](F)C1(c2cccc(N3Cc4c(cc(CN5CC6(CC6)C5)cc4C(F)(F)F)C3=O)c2)COC1

>  <experimental_result>
79

$$$$
>  <compound>
CC(C)[C@H]1CN(CCF)CCN1Cc1cc2c(c(C(F)(F)F)c1)CN(c1cccc(C3([C@H](F)c4nncn4C)COC3)c1)C2=O

>  <experimental_result>
21

$$$$
>  <compound>
Cn1cnnc1[C@H](F)C1(c2cccc(N3Cc4c(cc(CNC5(C)CC5)cc4C(F)(F)F)C3=O)c2)COC1

>  <experimental_result>
10

$$$$

Lookup: For the compound `Cn1cnnc1[C@H](F)C1(c2cccc(N3Cc4c(cc(CN5CC(S(C)(=O)=O)C5)cc4C(F)(F)F)C3=O)c2)COC1` , report IC50.
Found: 240

Lookup: For the compound `Cn1cnnc1[C@H](F)C1(c2cccc(N3Cc4c(cc(CN5CCC[C@@H]5CO)cc4C(F)(F)F)C3=O)c2)COC1` , report IC50.
Found: 190

Lookup: For the compound Cn1cnnc1CC1(c2cccc(N3Cc4c(cc(C5CCNC5)cc4C(F)(F)F)C3=O)c2)COC1.O=CO (racemic) [Compound 50, formate] , report IC50.
Found: 90

Where do the numbers come from? From patent US20250230147A1.
